# Test system: IL-1β secretion in BMDM cells (NLRP3 inflammasome)
# testSummary: ELISA of IL-1β secretion in LPS/nigericin-treated BMDM cells
# Type: cell-based
# setupConditions: Mus musculus; BMDM, LPS/nigericin; three independent experiments; read-out: IL-1β release IC50 in BMDMs
quantityName: IC50 (nM)
Form entry: value (nM) — number only.

Ask: Read the entry Cc1ccc(C(=O)/C=C/c2cccc(O)c2)c(C)c1 and write its reported IC50.
Result: 740
